Hey, just so you know, these numbers are from PubChem BioAssay AID1159580.

Please provide measured normalized growth for the entries that follow.
Assay remarks: chemical genetic growth profiling, strain panel (AID 1159580);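 note: tested at 20 µM; growth read once vehicle control cultures reached saturation at 30 °C; 1 = growth at the plate median or of vehicle wells; lower values mean less growth of the strain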
Reported conditions: S. cerevisiae deletion strains, growth OD, locus YOR136W, strain idh2, stronger effect = lower value
About 2,000 (36%) of roughly 5,500 compounds were called active. Not shown: some 18% with an inconclusive outcome. The list shows a part of the results.
Returns: the value as a bare number; no unit string appended.

Exam item: Looking for the measured normalized growth of CC1=CC2C(C(C)C)CCC(C)(O)C2CC1 (stereo unspecified) , can you help?
Marked response: 0.968

Exam item: Looking for the measured normalized growth of `Cc1c(NC(=O)c2cccnc2)c(=O)n(-c2ccccc2)n1C` , can you help?
Marked response: 0.983

Exam item: Looking for the measured normalized growth of COc1cc2c(cc1OC)[C@@]13CCN4CC5=CCOC6CC(=O)N2C1[C@H]6[C@H]5C[C@H]43 (stereo partly specified) , can you help?
Marked response: 0.991

Exam item: Looking for the measured normalized growth of CC(=O)OCC(=O)[C@@]1(O)CCC2C3CCC4=CC(=O)CC[C@]4(C)C3[C@@H](O)C[C@@]21C (stereo partly specified) , can you help?
Marked response: 0.994

Exam item: Looking for the measured normalized growth of C#CC1(O)CCC2C3CCC4=CC(=O)CCC4(C)C3CCC21C (stereo unspecified) , can you help?
Marked response: 0.977

Exam item: Looking for the measured normalized growth of CC(=O)OCC1=C(C(=O)O)N2C(=O)[C@@H](NC(=O)CCCC(N)C(=O)O)C2SC1 (stereo partly specified) , can you help?
Marked response: 1

Exam item: Looking for the measured normalized growth of `Cc1cc(C(C)(C)C)c(O)c(C)c1CC1=NCCN1` , can you help?
Marked response: 1

Exam item: Looking for the measured normalized growth of `CCNc1nc(Cl)nc(NCC)n1` , can you help?
Marked response: 1

Exam item: Looking for the measured normalized growth of `CC1(C)C=Cc2cc3ccc(=O)oc3cc2O1` , can you help?
Marked response: 0.968

Exam item: Looking for the measured normalized growth of C#C[C@]1(O)CCC2C3CCC4=Cc5oncc5C[C@]4(C)C3CC[C@@]21C (stereo partly specified) , can you help?
Marked response: 0.922

Exam item: Looking for the measured normalized growth of COc1cc2c(cc1O)CCNC2C (stereo unspecified) , can you help?
Marked response: 0.964
